- Run description: Thermodynamic solubility of compound at pH 6.5 PBS buffer
- Type: physicochemical
- Condition: read-out: Therm_solubility
Measure: solubility thermodynamic (µg/mL)

(A) Cc1cc(N2CCOCC2)cnc1NC(=O)c1cc(C(=O)NCc2ccc(F)c(F)c2)c(F)cc1Cl
(B) CC(C)(O)c1ccc(NC(=O)c2cc(C(=O)NCc3ccc(F)c(F)c3)c(F)cc2Cl)cc1
(C) Cc1cc(OC(F)F)ccc1NC(=O)c1cc(C(=O)NCc2ccc(F)cc2)c(F)cc1Cl
Falling order of solubility thermodynamic, please. List the labels according to the requested ordering.
B, A, C

* * *

- Run description: AUClast in NMRI-nu/nu mouse at 100 mg/kg,po measured upto 24 hrs by HPLC-MS/MS analysis
- Type: ADME, organism-based
- Design: time < 24 hrs, dose 100 mg/kg, route po
- Condition: in vivo
Measure: AUC(0-t) at 24 h (ng·h/mL)

CC(C)(O)c1ccc(NC(=O)c2cc(C(=O)NCc3ccc(F)c(F)c3)c(F)cc2Cl)cc1; 1900

(a) Cc1cc(OC(F)F)ccc1NC(=O)c1cc(C(=O)NCc2ccc(F)cc2)c(F)cc1Cl
(b) Cc1cc(N2CCOCC2)cnc1NC(=O)c1cc(C(=O)NCc2ccc(F)c(F)c2)c(F)cc1Cl
Could you check which of a and b has a smaller value for AUC(0-t) at 24 h? Field: selected label. Fill in the label of the entry you choose.
b
(b: 520 ng·h/mL, a: 12000 ng·h/mL)
